Assay: in vitro
Conditions: CD-1, mouse, liver microsomes
attribute.measured: remaining at 0 h, 1 µM (%)

structure.smiles.string: O=C(CCc1csc(/C=C/c2ccc(F)cc2)n1)NO
value: 107

====

Assay: in vitro
Details: human, liver microsomes

structure.smiles.string: O=C(CCc1csc(/C=C/c2ccc(F)cc2)n1)NO
remaining at 0 h, 1 µM / %: 106

====

Assay: in vitro
Conditions: human, liver microsomes
attribute.measured: remaining at 0.25 h, 1 µM (%)

structure.smiles.string: O=C(CCc1csc(/C=C/c2ccc(F)cc2)n1)NO
value: 103

====

Experiment: in vitro
Conditions: CD-1, mouse, liver microsomes

structure.smiles.string: O=C(CCc1csc(/C=C/c2ccc(F)cc2)n1)NO
remaining at 0.25 h, 1 µM, %: 68.6
